experiment: inhibitors of insulin promoter-driven GFP, primary screen, imaging, TRM-6 cells (human fetal islet line), eGFP reporter, cell count (AID 1273;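 also: cells exposed to compound for 48 h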); details: at 2 µM, reporter expression induced with tamoxifen; measured here: cell count, toxicity
The campaign covered roughly 130,000 compounds. About 1,200 (0.92%) were called active. The list comes from a sample in which actives are over-represented; it also holds close analogues and randomly drawn compounds.
observedProperty: normalized cell count (%)
The reply should contain only the number, in %.

// solved cases for normalized cell count follow
[
  {
    "compound": "O=[N+]([O-])c1ccc(N2CCN(c3ccc(O)cc3)CC2)c(Cl)c1",
    "observedProperty": "normalized cell count",
    "reading": 135
  },
  {
    "compound": "C#CCOCCOCCOCCNc1nc(N2CCN(C(=O)[C@H](C(C)C)n3cc(CCO)nn3)CC2)nc(N2CCN(C(=O)[C@H](C(C)C)n3cc(CCO)nn3)CC2)n1",
    "observedProperty": "normalized cell count",
    "reading": 117
  },
  {
    "compound": "Cn1c(N)c(C(=O)COC(=O)c2cnc(Cl)c(Cl)c2)c(=O)n(C)c1=O",
    "observedProperty": "normalized cell count",
    "reading": 106
  },
  {
    "compound": "Cc1cccc(C)c1NC(=O)C1(N(C(=O)c2ccccn2)c2ccc(O)cc2)CCCCC1",
    "observedProperty": "normalized cell count",
    "reading": 38.5
  }
]

normalized cell count lookup needed for "COc1ccc(C(=O)N2CCC(C(=O)Nc3ccc(C)cc3)CC2)cc1" , thanks.
85.5

normalized cell count lookup needed for "O=C(Nc1nnc(SCc2ccccc2)s1)c1ccco1" , thanks.
86.4

normalized cell count lookup needed for O=C(Nc1ccc(F)cc1)N1CCCC(c2nc3c(nnn3Cc3ccccc3Cl)c(=O)[nH]2)C1 (stereo not drawn) , thanks.
122

normalized cell count lookup needed for "COCc1cc(C(C)=O)ccc1OC" , thanks.
97.5

normalized cell count lookup needed for "O=C(O)CSCC(=O)Nc1ccc(C(F)(F)F)cc1" , thanks.
92.1

normalized cell count lookup needed for "O=[N+]([O-])/C(N=Nc1ccccc1)=N\Nc1ccccc1" , thanks.
142

normalized cell count lookup needed for "COc1ccccc1CSc1nc2ccccc2[nH]1" , thanks.
124

normalized cell count lookup needed for "C=CCSc1nc2ccccc2[nH]1" , thanks.
184

normalized cell count lookup needed for "COc1cccc2cc(S(=O)(=O)c3ccc(C)cc3)/c(=N/NS(=O)(=O)c3ccc(C)cc3)oc12" , thanks.
139

normalized cell count lookup needed for "COc1cccc(NC(=O)CS(=O)(=O)c2cn(CC(=O)N3CCOCC3)c3ccccc23)c1" , thanks.
88.8

normalized cell count lookup needed for "C=CCNC(=O)COC(=O)CNC(=O)c1cc(Cl)cc([N+](=O)[O-])c1" , thanks.
37

normalized cell count lookup needed for "CCN(CC)CCn1c2ccc(Cl)cc2c2nc(C)sc21" , thanks.
78.6

normalized cell count lookup needed for "C=CCNC(=O)/C(=C\c1cccc([N+](=O)[O-])c1)NC(=O)c1ccccc1" , thanks.
102

normalized cell count lookup needed for "C/C(=N\NC(=O)C(N)=O)c1ccc2c(c1)OCCO2" , thanks.
156

normalized cell count lookup needed for Fc1ccccc1/C=C1\CCCC2=C1Nc1ncnn1C2c1ccccc1F (stereo not drawn) , thanks.
102

normalized cell count lookup needed for "COC(=O)Cn1c2ccc(C)cc2c2nc(C)sc21" , thanks.
32.4

normalized cell count lookup needed for "COc1ccc(OC)c(NC(=O)CCN2CCC(C)CC2)c1" , thanks.
86.9

normalized cell count lookup needed for "CCOC(=O)c1nnn(-c2nonc2-n2cccc2)c1CN1CCOCC1" , thanks.
62.1

normalized cell count lookup needed for "Cc1cc(NC(=O)CSc2nc3ccccc3n2CC(C)C)no1" , thanks.
96.4
